B1: Osa-1-4 twister ribozyme (parent)
chain: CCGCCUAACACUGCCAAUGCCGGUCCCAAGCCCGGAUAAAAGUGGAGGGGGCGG

Variants of: B1
Assay: self-cleavage, relative activity (ratio to wild type); higher = more cleavage; co-transcriptional
Assay Readout: self-cleavage
Answer with the value's number alone.

{"columns": ["Mutations", "self-cleavage"],
 "data": [
  ["C14G G53C", 0.04],
  ["G48C G54A", 0.11],
  ["A29U C15A", 0.04],
  ["G13U U12A", 0.02],
  ["A36G A40C", 0.1],
  ["C21G C33U", 0.05],
  ["C9A G30A", 0.02],
  ["A40G U37G", 1.02],
  ["C32A U18C", 0.07],
  ["C14G G22U", 0.07]
]}

Tell me the measured self-cleavage of A17C G53A , please. 0.86

What do you have for G13U G51A ? 0.02

What would you report for C15A G48A ? 0.05

What about this variant? A10C G34C 0.03
